tested on: NCI-H522 lung; assay: NCI tumour cell line growth inhibition, 48 h
Experimental endpoint: TGI

Reported TGI for CS(=O)(=O)C(C#N)c1nc2ccccc2nc1Cl (stereo not drawn) was > 100 µM

Reported TGI for CCN1C[C@]2(C)CC[C@H](O)C34C1C(C[C@@H]32)[C@@]1(O)CC[C@H]2C[C@@H]4[C@@H]1[C@H]2O was > 100 µM

Reported TGI for O=C1COc2cc(NC(=S)Nc3ccccc3)ccc2N1 was > 100 µM

----------
system: TK-10 renal; test: NCI tumour cell line growth inhibition, 48 h
# TGI annotations
The answer is to be given in µM; state only the numeric part.

# Molecule, TGI (µM)
rows = [
    ("C=C1c2c(C)nn(-c3ccc(C#CCOC4OC(CO)C(O)C(O)C4O)cc3)c2N(C)C23C[C@H]1C1(C)c4c(C)nn(-c5ccc(C#CCOC6OC(CO)C(O)C(O)C6O)cc5)c4N(C)C(C)(C[C@H]12)C3 (some centres not stated)", 4.04),
    ("O=S(Cc1ccccc1)c1nc2ccccc2nc1-c1cccs1 (configuration not stated)", 28),
]

Please turn your attention to the following entry.
Reported TGI for C#CCn1c(=O)c(I)cn(/C(=C/C(=O)OCC)C(=O)OCC)c1=O was 1.67
